These measurements were taken from paper PMC9657098.

molecular target: AChE (Homo sapiens, UniProt P22303); assay: biochemical; details: read-out: IC50 for AchE (abstract)
Sequence (P22303 32-614): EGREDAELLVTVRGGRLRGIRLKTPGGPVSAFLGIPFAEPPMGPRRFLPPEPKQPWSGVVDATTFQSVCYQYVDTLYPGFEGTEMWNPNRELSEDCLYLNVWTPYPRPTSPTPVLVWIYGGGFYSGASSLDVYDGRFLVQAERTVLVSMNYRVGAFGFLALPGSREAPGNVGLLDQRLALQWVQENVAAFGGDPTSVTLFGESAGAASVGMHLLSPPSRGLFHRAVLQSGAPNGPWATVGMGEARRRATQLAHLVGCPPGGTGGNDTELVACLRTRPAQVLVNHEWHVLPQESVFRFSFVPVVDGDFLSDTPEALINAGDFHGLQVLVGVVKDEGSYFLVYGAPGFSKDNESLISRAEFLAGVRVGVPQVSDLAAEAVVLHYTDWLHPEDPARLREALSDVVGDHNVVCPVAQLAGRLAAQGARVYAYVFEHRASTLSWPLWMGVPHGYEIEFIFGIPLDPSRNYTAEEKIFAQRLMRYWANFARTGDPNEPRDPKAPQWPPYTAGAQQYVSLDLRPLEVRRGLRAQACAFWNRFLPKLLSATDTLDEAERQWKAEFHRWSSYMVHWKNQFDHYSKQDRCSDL
Property Label: IC50 (nM)
Return type: number; implicit unit nM.

In: Provide one value: measured IC50 of Fc1ccc(Nc2nnc(Cc3cc4cc(Cl)ccc4[nH]3)s2)cc1
Out: 150

====

target: BuChE (Homo sapiens); assay: biochemical
Sequence (P06276 29-602): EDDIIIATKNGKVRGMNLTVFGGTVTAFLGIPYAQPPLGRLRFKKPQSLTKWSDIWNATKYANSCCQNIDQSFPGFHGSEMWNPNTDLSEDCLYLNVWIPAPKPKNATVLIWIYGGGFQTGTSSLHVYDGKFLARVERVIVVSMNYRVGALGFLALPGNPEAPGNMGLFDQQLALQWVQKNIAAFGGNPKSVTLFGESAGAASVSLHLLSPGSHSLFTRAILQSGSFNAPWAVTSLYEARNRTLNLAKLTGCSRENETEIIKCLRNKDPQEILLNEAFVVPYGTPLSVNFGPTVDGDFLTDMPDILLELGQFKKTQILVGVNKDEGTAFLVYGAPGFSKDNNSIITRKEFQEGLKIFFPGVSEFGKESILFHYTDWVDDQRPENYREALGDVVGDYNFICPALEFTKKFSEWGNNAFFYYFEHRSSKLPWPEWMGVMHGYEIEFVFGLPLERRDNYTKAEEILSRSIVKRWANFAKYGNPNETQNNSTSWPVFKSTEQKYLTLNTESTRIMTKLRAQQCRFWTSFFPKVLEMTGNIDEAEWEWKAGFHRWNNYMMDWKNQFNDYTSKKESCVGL
Property Label: IC50 (µM)
Express your answer in µM, writing the number without its unit.

In: Please look at this compound and report its IC50: O=[N+]([O-])c1cccc([N+](=O)[O-])c1Nc1nnc(Cc2cc3cc(Cl)ccc3[nH]2)s1
Out: 5.4

====

target: AChE (Homo sapiens, UniProt P22303); assay: biochemical; details: in vitro enzyme inhibition, 25°C, pH 8.0; read-out: AChE IC50 (µM ± SEM)
Records here are stratified by IC50; strata: low = under 1 µM, middle = from 1 µM up to 10 µM, high = 10 µM and over

Take a look at these entries with their results.
>>> group("Cc1cccc(Nc2nnc(Cc3cc4cc(Cl)ccc4[nH]3)s2)c1C")
"middle"
>>> group("Fc1cccc(Nc2nnc(Cc3cc4cc(Cl)ccc4[nH]3)s2)c1")
"middle"
>>> group("FC(F)(F)c1ccc(Nc2nnc(Cc3cc4cc(Cl)ccc4[nH]3)s2)cc1Cl")
"low"
>>> group("Fc1ccccc1Nc1nnc(Cc2cc3cc(Cl)ccc3[nH]2)s1")
"low"
>>> group("COc1cc(Nc2nnc(Cc3cc4cc(Cl)ccc4[nH]3)s2)ccc1[N+](=O)[O-]")
"high"
>>> group("O=[N+]([O-])c1cc(Br)cc(Nc2nnc(Cc3cc4cc(Cl)ccc4[nH]3)s2)c1")
"high"
>>> group("Cc1ccc(Nc2nnc(Cc3cc4cc(Cl)ccc4[nH]3)s2)cc1C")
"middle"
>>> group("O=[N+]([O-])c1cc(Nc2nnc(Cc3cc4cc(Cl)ccc4[nH]3)s2)ccc1Br")
"high"

Continue with the compound presented below.
In: Please report the category associated with COc1c(Nc2nnc(Cc3cc4cc(Cl)ccc4[nH]3)s2)cccc1[N+](=O)[O-] , nothing else.
Out: high
